# Protocol: inhibitors of HIV fusion peptide binding, primary screen, biochemical, uHTS, fluorescence dequenching (AID 1986)
# Measurement Context: cell-free peptide binding, 30 min, at 20 µM, hits give high values
Screen size: about 290,000 compounds; about 890 (0.31%) were called active. The sample holds actives, similar compounds and a random draw of the others, so the mix is not that of the screen.
Each entry below carries its reported inhibition.

# annotated cases, reported inhibition shown
- Compound: "Cc1cc(C)c2c(c1)NC(C(=O)O)C1CC=CC21 (configuration not stated)"
  Value Observed: "60.2% (active)"
- Compound: "N#C/C(=C\\c1ccc(N2CCCCC2)o1)C(N)=O"
  Value Observed: "91.9% (active)"
- Compound: "C(=N\\Nc1nc(N2CCCC2)nc(N2CCCC2)n1)/c1ccncc1"
  Value Observed: "-0.1% (inactive)"
- Compound: "Cc1ccc(N/N=C/c2ccc3c(c2)OCCO3)cc1Cl"
  Value Observed: "2.7% (inactive)"
- Compound: "Cc1cc(C)c2c(c1)NC(c1cc3c(cc1Br)OCO3)C1CC=CC21 (configuration not stated)"
  Value Observed: "7.4% (inactive)"

Form: compound = O=C(O)C1Nc2c(O)cc(Cl)c([N+](=O)[O-])c2C2C=CCC12 (configuration not stated) ; inhibition = 66.8% (inactive)

inhibition reported for this compound `COC(=O)c1c(/N=C/NOCc2ccc(Cl)cc2)sc2c1CCN(c1ncc(C(F)(F)F)cc1Cl)C2` : -1.7% (inactive)

// field: inhibition; key: `N#C/C(=C\c1ccc(N2CCOCC2)o1)c1nc2ccccc2[nH]1` ; value = 48.3% (inactive)

Record summary for `CCOC(=O)/C(=N\Nc1cccc(C(F)(F)F)c1)N1CCOCC1` : reported inhibition = -4.2% (inactive)

Documented inhibition of `Cc1ccc(C)c(C(=O)CSc2nc3ccccc3c(=O)[nH]2)c1` : 1.9% (inactive)

Data point: `O=C(NCc1ccc2c(c1)OCO2)c1ccc(CSCc2ccccc2Cl)o1` ; inhibition = 0.4% (inactive)

Item: `O=C(Nc1cccc(OCC(=O)N2CCOCC2)c1)c1ccc(C(F)(F)F)cc1` | inhibition: 1.4% (inactive)

Item: `O=C(Cc1ccc(Cl)cc1)NCC(=O)N1CCN(c2ccccc2)CC1` | inhibition: 0.4% (inactive)

Short answer for `COc1ccc(Br)cc1C(=O)Nc1ccc(N2CCCC2)cc1` : inhibition was -1.9% (inactive)

Briefly, inhibition measured for `COc1cc(OC)cc(C(=O)N2CCN(C(=O)c3ccc(-c4ccccc4)cc3)CC2)c1` : -0.7% (inactive)

According to the records, this compound `COc1ccc(-c2cc(-c3ccco3)[nH]c(=O)c2C#N)cc1OC` displays inhibition of 40.7% (inactive)

Form: compound = O=[N+]([O-])c1ccc(/C=C/C2=NN(c3ccccc3)C(c3ccco3)C2)cc1 (configuration not stated) ; inhibition = 35% (inactive)

According to the records, this compound `N#C/C(=C/c1ccc(N2CCCCC2)o1)C(=O)Nc1ccc(Cl)cc1` displays inhibition of 44.8% (inactive)
